Origin of measurements: the supplement of paper PMC9170038

# Tested on: MS2 coat protein
# PROTOCOL DESCRIPTION: apparent KD of MS2 coat protein; designed switch direction (-1 OFF switch, 1 ON switch): -1; higher = weaker reporter binding
# EXPERIMENTAL CONDITIONS: input ligand: none
Please mark t if the recorded apparent KD of MS2 coat protein is equal to or greater than 30 nM, and f if it falls below.

[
  {
    "POLYMER SEQUENCE": "UCGCCGCCCUUGGGCGGCGACAUGAGGAUCACCCAUGUCAAGCUUUUUGCUCGUUUUAUUGCCGGCCUUGGCCGGCU [Olib_2] (Eterna round: R97, puzzle: Sensor, turn-off variant 1)",
    "CLASS": "t"
  }
]

Q. Hi, just wondering whether GAAUGAGAGCAGGAUAUCUUAUAAGUGUAUGAAAGAGAAGGGCUCACAUGAGGAUCACCCAUGUGGUCCUAGAU [jl-ex6-4.86 jandersonlee mod] (Eterna round: R97, puzzle: Exclusion 6) shows apparent KD of MS2 coat protein of 30 nM or higher.
A. t

Q. Hi, just wondering whether UGUGUGAGACAGGAUAUGCCGGUUGUAUUACUGGUAGAAGGGUCUACAUGAGGAUCACCCAUGUGGCCGGCCGG [Ex6 #82] (Eterna round: R97, puzzle: Exclusion 6) shows apparent KD of MS2 coat protein of 30 nM or higher.
A. f

Q. Hi, just wondering whether GAUUAAUGCAAGGAUAUGCUAUUAAUUUAUUUUGCAGAAGGUGCAACAUGAGGAUCACCCAUGUUGGAGGGUAU [JR_E6_Sub027] (Eterna round: R96, puzzle: Exclusion 6) shows apparent KD of MS2 coat protein of 30 nM or higher.
A. f

Q. Hi, just wondering whether CAGUACUGAGGAUAUACAUGAGGAUCACCCAUGUGAUCUGGUGCACGCGUACGUGUACGUAGAAGGCAGUACUG [JL 3.27 m4] (Eterna round: R97, puzzle: Exclusion 3) shows apparent KD of MS2 coat protein of 30 nM or higher.
A. t

Q. Hi, just wondering whether UCAAGUUUAGAGGAUAUAUAAUAUUUAUUAACUAUAGAAGGCUAUACAUGAGGAUCACCCAUGUAUAUUGGGAU [JR_Ex6_Sub066] (Eterna round: R97, puzzle: Exclusion 6) shows apparent KD of MS2 coat protein of 30 nM or higher.
A. f

Q. Hi, just wondering whether UCAAUUUUGACAGGAUAUAGUUUUUGUUUCUCUCUAGAAGGGUCUGUGUACAUGAGGAUCACCCAUGUUCUUCUUAUUUAUAUU [JR_ExcNG1_Sub014] (Eterna round: R96, puzzle: Exclusion NG 1) shows apparent KD of MS2 coat protein of 30 nM or higher.
A. t
